Below, each entry is listed with its recorded pIC50.
target or test system: human orexin-2 receptor (Homo sapiens (Human), UniProt O43614)
Sequence (O43614 whole entry): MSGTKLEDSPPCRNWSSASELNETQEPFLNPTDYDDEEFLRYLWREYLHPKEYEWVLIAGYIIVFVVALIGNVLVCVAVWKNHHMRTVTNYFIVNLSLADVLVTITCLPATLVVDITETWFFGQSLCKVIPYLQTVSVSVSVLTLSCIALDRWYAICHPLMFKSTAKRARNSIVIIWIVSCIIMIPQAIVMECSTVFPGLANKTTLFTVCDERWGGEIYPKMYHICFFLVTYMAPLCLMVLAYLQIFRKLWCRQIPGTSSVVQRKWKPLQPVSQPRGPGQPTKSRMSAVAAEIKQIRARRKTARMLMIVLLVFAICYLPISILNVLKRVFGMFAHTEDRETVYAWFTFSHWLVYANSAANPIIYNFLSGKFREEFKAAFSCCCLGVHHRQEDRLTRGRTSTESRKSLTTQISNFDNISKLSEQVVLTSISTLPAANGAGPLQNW
test details: In vitro assay: intracellular calcium measurements (FLIPR), antagonistic activity
applied conditions: CHO cells expressing human orexin-2 receptor, orexin-A agonist, geometric mean, read-out: IC50 Ox2
API: returns pIC50 as number; meaning -log10 of concentration in mol/L.

Data request: Report pIC50 for Cc1ccc(-n2nccn2)c(C(=O)N2CCC[C@@]2(C)c2nc3c(Cl)cccc3[nH]2)c1 please.
Data returned: 6.71

Data request: // returns reported pIC50 for input C=C1C[C@@H](c2nc3ccc(OC)cc3[nH]2)N(C(=O)c2cc(C)c(C)cc2-n2nccn2)C1
Data returned: 9.22

Data request: If you can, please state the reported pIC50 value of CSc1ccc2nc([C@@H]3CCCN3C(=O)c3ccccc3-n3nccn3)[nH]c2c1 .
Data returned: 7.89

Data request: Report pIC50 for Cc1nc(C(=O)N2CCCC2c2nc3c(C(C)C)cccc3[nH]2)c(-c2cccc(Cl)c2)s1 (centres unmarked) please.
Data returned: 6.61

---

target or test system: human orexin-2 receptor (Homo sapiens (Human), UniProt O43614)
test details: In vitro assay: intracellular calcium measurements (FLIPR), antagonistic activity
applied conditions: CHO cells expressing human orexin-2 receptor, orexin-A agonist, geometric mean, read-out: IC50 Ox2
Below, each entry is listed with its recorded log10 of IC50.
The common logarithm of IC50 in nM is what is listed.

>  <compound>
Cc1ccc(-c2ccccc2C(=O)N2CCC[C@@]2(C)c2nc3cc(C)c(C)cc3[nH]2)cc1

>  <log10 of IC50>
1.72

$$$$
>  <compound>
Cc1ccc(-n2nccn2)c(C(=O)N2CCC[C@@]2(C)c2nc3c(C)c(Cl)ccc3n2C)n1

>  <log10 of IC50>
0.60

$$$$
>  <compound>
C=C1C[C@@H](c2nc3ccc(Cl)c(C)c3[nH]2)N(C(=O)c2nc(C)sc2-c2cccc(C)c2)C1

>  <log10 of IC50>
-0.22

$$$$
>  <compound>
CSc1cccc2nc([C@@H]3CCCN3C(=O)c3ccccc3-c3ccc(C)c(C)c3)[nH]c12

>  <log10 of IC50>
0.95

$$$$
>  <compound>
C=C1CC(c2nc3cc(SC)ccc3[nH]2)N(C(=O)c2nc(C3CC3)sc2-c2cccc(C)c2)C1 (stereo not drawn)

>  <log10 of IC50>
1.18

$$$$
>  <compound>
Cc1ccc(-c2ccc(C(F)(F)F)cc2)c(C(=O)N2CCC[C@@]2(C)c2nc3cc(C(F)(F)F)c(Cl)cc3[nH]2)c1

>  <log10 of IC50>
2.73

$$$$

Data request: Any idea what log10 of IC50 was measured for Cc1cc2[nH]c([C@@H]3[C@@H](C)CCN3C(=O)c3c(-c4ccccn4)ccc(C)c3F)nc2cc1Cl ?
Data returned: 3.31

Data request: Endpoint output: log10 of IC50 of CSc1ccc2[nH]c([C@@H]3CCCN3C(=O)c3cc(C)ccc3-n3cccn3)nc2c1 . Value?
Data returned: 1.48

Data request: Return reported log10 of IC50; argument: Cc1ccc(-c2ncccn2)c(C(=O)N2CCC[C@@]2(C)c2nc3cc(C)c(C)cc3[nH]2)c1
Data returned: 1.26

Provenance of the data: patent US9732075B2
